Biological target: T1, cynomolgus monkey IL-33 expressed with a C-terminal hexahistidine tag (cynomolgus monkey)
T1 construct: also called MfIL-33-6His; Mf-IL-33-6His
T1 chain: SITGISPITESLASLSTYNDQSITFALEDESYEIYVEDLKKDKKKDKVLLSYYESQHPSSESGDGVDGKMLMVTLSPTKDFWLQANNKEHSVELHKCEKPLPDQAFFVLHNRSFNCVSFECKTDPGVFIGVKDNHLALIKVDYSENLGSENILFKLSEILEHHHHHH
Test: SPR 37C pH7.4, mAb captured
Recorded endpoint: koff (s⁻¹)
A number alone suffices; assume s⁻¹.

Ask: Report koff for H4H9670P (antibody, V domains shown, Human IgG4 Fc (H4H)) VH: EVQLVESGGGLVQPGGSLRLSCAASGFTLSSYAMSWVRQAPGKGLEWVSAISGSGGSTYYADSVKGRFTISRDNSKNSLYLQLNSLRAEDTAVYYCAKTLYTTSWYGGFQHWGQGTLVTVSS VL: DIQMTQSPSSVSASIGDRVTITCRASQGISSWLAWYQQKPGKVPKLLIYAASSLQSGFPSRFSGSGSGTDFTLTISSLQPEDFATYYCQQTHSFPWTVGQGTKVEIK
Reply: 0.00503

Ask: Report koff for H1M9566N (antibody, mouse IgG1, V domains shown, Human variable domains, mouse IgG1 Fc (H1M)) VH: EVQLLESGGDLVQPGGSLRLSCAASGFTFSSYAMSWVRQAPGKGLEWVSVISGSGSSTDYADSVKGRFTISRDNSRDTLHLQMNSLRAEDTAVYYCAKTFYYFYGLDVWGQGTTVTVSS VL: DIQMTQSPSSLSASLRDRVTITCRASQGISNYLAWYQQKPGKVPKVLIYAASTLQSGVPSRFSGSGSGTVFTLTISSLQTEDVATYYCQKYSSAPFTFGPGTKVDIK
Reply: 0.0004

Ask: Report koff for H4H9629P (antibody, human IgG4, V domains shown, Human IgG4 Fc (H4H)) VH: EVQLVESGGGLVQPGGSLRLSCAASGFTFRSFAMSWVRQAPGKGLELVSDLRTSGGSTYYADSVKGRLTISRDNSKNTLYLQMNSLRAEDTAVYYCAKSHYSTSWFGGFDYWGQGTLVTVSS VL: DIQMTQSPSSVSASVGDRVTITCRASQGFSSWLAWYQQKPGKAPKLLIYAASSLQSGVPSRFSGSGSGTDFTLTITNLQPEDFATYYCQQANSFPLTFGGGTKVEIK
Reply: 0.0347
